organism: Rattus norvegicus; test: Open TG-GATES - Regimen: Daily Repeat; format: toxicity, organism-based, Sprague-Dawley; parameters: regimen Daily Repeat, gender Male, age 6 weeks; conditions: in vivo, po, 0 mg/kg, 72 h, tissue Blood, route gavage, dose level Control, time 3 day
Listing: Eos of selected compounds
property: Eos (%)

compound: CCN1CCCC1CNC(=O)c1cc(S(N)(=O)=O)ccc1OC (stereo unspecified) [SULPIRIDE]
property: Eos
reading: 1
//
compound: O=C(N[C@H](CO)[C@H](O)c1ccc([N+](=O)[O-])cc1)C(Cl)Cl [CHLORAMPHENICOL]
property: Eos
reading: 1.2
//
compound: Nc1nc(N)c2nc(-c3ccccc3)c(N)nc2n1
property: Eos
reading: 1
//
compound: CCSCC[C@H](N)C(=O)O [ETHIONINE]
property: Eos
reading: 1
//
compound: CC(=N)S [THIOACETAMIDE]
property: Eos
reading: 1
//
compound: C[C@](N)(Cc1ccc(O)c(O)c1)C(=O)O [METHYLDOPA]
property: Eos
reading: 1.2
//
compound: C[C@]12CCC(=O)C=C1CC[C@@H]1[C@@H]2CC[C@@]2(C)[C@H]1CC[C@]2(C)O [METHYLTESTOSTERONE]
property: Eos
reading: 1.2
//
compound: CC(=O)Oc1cc(C(C)C)c(OCCN(C)C)cc1C [MOXISYLYTE]
property: Eos
reading: 1
//
compound: CCc1oc2ccccc2c1C(=O)c1cc(I)c(O)c(I)c1 [BENZIODARONE]
property: Eos
reading: 0.8
//
compound: CC(C)(S)[C@@H](N)C(=O)O [PENICILLAMINE]
property: Eos
reading: 0.6
//
compound: O=C(O)c1cccnc1 [NIACIN]
property: Eos
reading: 0.8
//
compound: CCC(C)(C)C(=O)O[C@H]1C[C@@H](C)C=C2C=C[C@H](C)[C@H](CC[C@@H]3C[C@@H](O)CC(=O)O3)[C@H]21 [SIMVASTATIN]
property: Eos
reading: 1
//
compound: C#C[C@]1(O)CC[C@H]2[C@@H]3CCc4cc(O)ccc4[C@H]3CC[C@@]21C [ETHINYL ESTRADIOL]
property: Eos
reading: 1
//
compound: CC(C)C(=O)Nc1ccc([N+](=O)[O-])c(C(F)(F)F)c1 [FLUTAMIDE]
property: Eos
reading: 1
//
compound: Oc1ncnc2[nH]ncc12 [ALLOPURINOL]
property: Eos
reading: 0.8
//
compound: CN1C(=O)OC(C)(C)C1=O [TRIMETHADIONE]
property: Eos
reading: 0.8
